Biological target: SP receptor (Rattus norvegicus, UniProt P14600)
Construct: from tissue; host or cells: rat submaxillary gland (crude tissue suspension)
Sequence (P14600 whole entry): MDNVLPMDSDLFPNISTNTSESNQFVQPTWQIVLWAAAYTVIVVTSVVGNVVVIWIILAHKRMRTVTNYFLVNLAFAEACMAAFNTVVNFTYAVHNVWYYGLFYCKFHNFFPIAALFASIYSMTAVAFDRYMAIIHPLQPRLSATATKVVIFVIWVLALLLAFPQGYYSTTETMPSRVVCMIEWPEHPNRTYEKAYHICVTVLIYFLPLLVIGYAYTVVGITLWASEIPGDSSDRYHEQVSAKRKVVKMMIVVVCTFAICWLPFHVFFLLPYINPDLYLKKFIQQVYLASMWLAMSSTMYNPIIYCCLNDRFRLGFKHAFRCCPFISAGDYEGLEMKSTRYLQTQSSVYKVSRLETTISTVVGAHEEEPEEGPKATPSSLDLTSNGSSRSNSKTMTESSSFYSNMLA
Assay: 3H-SP binding test, rat brain tissue
Details: 30 μM test compound; rat brain tissue (Examples 35-42)
Method: Crude rat submaxillary gland or brain tissue is suspended in buffer containing protease inhibitors (and calcium ions and magnesium ions in the case of brain tissue) and incubated under nitrogen atmosphere with ^3 H-SP and test compound. The bound SP is then separated from free SP by filtration and quantitated by liquid scintillation spectroscopy. […]
Non-standard residues stand in square brackets, D forms with d. Residues, ends and D or L forms follow the SMILES beside them. dNMeW = CN[C@H](Cc1c[nH]c2ccccc12)C(=O)O; NMeF = CN[C@@H](Cc1ccccc1)C(=O)O; NMeM = CN[C@@H](CCSC)C(=O)O
The following compounds are shown together with reported inhibition at 30 µM values.
Return type: number; implicit unit %.

Observe how each entry below is paired with its result.
Compound	inhibition at 30 µM, %
CSCC[C@H](NC(=O)[C@H](CC(C)C)NC(=O)[C@@H](Cc1c[nH]c2ccccc12)N(C)C(=O)[C@H](Cc1ccccc1)NC(=O)[C@@H](Cc1c[nH]c2ccccc12)NC(=O)[C@@H]1CCCN1)C(N)=O [Example 41, HPro-DTrp-Phe-MeDTrp-Leu-MetNH2] (H-P[dW]F[dNMeW]LM-NH2)	79
CSCC[C@H](NC(=O)[C@H](CC(C)C)NC(=O)[C@@H](Cc1c[nH]c2ccccc12)NC(=O)[C@H](Cc1ccccc1)N(C)C(=O)[C@@H](Cc1c[nH]c2ccccc12)NC(=O)[C@@H]1CCCN1)C(N)=O [Example 38, HPro-DTrp-MePhe-DTrp-Leu-MetNH2] (H-P[dW][NMeF][dW]LM-NH2)	68
CSCC[C@H](NC(=O)[C@H](CC(C)C)NC(=O)CNC(=O)[C@H](Cc1ccccc1)NC(=O)[C@H](Cc1ccccc1)N(C)C(=O)[C@@H]1CCCN1)C(N)=O [Example 40, HPro-MePhe-Phe-Gly-Leu-MetNH2] (H-P[NMeF]FGLM-NH2)	9
CSCC[C@H](NC(=O)[C@H](CC(C)C)NC(=O)[C@@H](Cc1c[nH]c2ccccc12)NC(=O)CNC(=O)[C@@H](Cc1c[nH]c2ccccc12)NC(=O)[C@@H]1CCCN1)C(N)=O [Example 39, HPro-DTrp-Gly-DTrp-Leu-MetNH2] (H-P[dW]G[dW]LM-NH2)	46

Return value of inhibition at 30 µM for input CSCC[C@@H](C(N)=O)N(C)C(=O)[C@H](CC(C)C)NC(=O)[C@@H](Cc1c[nH]c2ccccc12)NC(=O)[C@H](Cc1ccccc1)NC(=O)[C@@H](Cc1c[nH]c2ccccc12)NC(=O)[C@@H]1CCCN1 [Example 36, HPro-DTrp-Phe-DTrp-Leu-MeMetNH2] (H-P[dW]F[dW]L[NMeM]-NH2) , no commentary.
82

Values compiled from patent US4472305A.
